# Test system: 188146-221-R-J1-PDC complex spheroid viability
# Procedure Text: Anticancer human tumor 188146-221-R-J1-PDC patient-derived colon adenocarcinoma cell line growth inhibition [POLQ]
# Settings: second compound 0.0316 µM; first compound 0.0316 µM; stronger effect = lower value
Quantity Measured: viability, T/C (%)
Kindly answer with a numeric value in %, unit omitted.

* COc1cccc2c1C(=O)c1c(O)c3c(c(O)c1C2=O)CC(O)(C(=O)CO)CC3OC1CC(N)C(O)C(C)O1 (stereo not given) + Nc1ccc(C#CCN(C(=O)Cc2ncc(C(F)(F)F)cc2C(F)(F)F)c2ccc(F)cc2)nn1 | 67.5
* CCc1cc2c(N3CCc4c(cc(Cn5ccnc5)cc4-c4cn(C)nc4C(F)(F)F)C3=O)cc(C)nc2c(OC)n1 + Nc1ccc(C#CCN(C(=O)Cc2ncc(C(F)(F)F)cc2C(F)(F)F)c2ccc(F)cc2)nn1 | 89.1
* C#Cc1c(F)ccc2cc(O)cc(-c3ncc4c(N5CC6CCC(C5)N6)nc(OCC56CCCN5CC(F)C6)nc4c3F)c12 (stereo not given) + Cc1cccc(N(C)C(=O)C2C(O)CCN2c2nc(C)cc(C(F)(F)F)c2C#N)c1 | 104
* CC1COCCN1c1cc(C2(O)CC3CCC(C2)O3)c2cnn(-c3ccn[nH]3)c2n1 (stereo not given) + COC1C(OC(N)=O)C(O)C(Oc2ccc3c(O)c(NC(=O)c4ccc(O)c(CC=C(C)C)c4)c(=O)oc3c2C)OC1(C)C | 93.4

Next up:
Request: Look up and state reported viability, T/C for C=CC(=O)N1CCN(c2nc(=O)n(-c3c(C)ccnc3C(C)C)c3nc(-c4c(O)cccc4F)c(F)cc23)C(C)C1 (stereo not given) + COC1C(OC(N)=O)C(O)C(Oc2ccc3c(O)c(NC(=O)c4ccc(O)c(CC=C(C)C)c4)c(=O)oc3c2C)OC1(C)C
Response: 103

###

# Tested on: 188146-221-R-J1-PDC complex spheroid viability
# Procedure Text: Anticancer human tumor 188146-221-R-J1-PDC cell line growth inhibition [POLQ];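 also: spheroids exposed to compounds for seven days; 100% = DMSO vehicle control viability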
# Settings: second compound 1 µM; first compound 0.0316 µM; stronger effect = lower value
Quantity Measured: viability, T/C (%)
Kindly answer with a numeric value in %, unit omitted.

Request: Look up and state reported viability, T/C for O=C(c1cc(Cc2n[nH]c(=O)c3ccccc23)ccc1F)N1CCN(C(=O)C2CC2)CC1 + Cc1cccc(N(C)C(=O)C2C(O)CCN2c2nc(C)cc(C(F)(F)F)c2C#N)c1
Response: 109

Request: Look up and state reported viability, T/C for C=CCn1c(=O)c2cnc(Nc3ccc(N4CCN(C)CC4)cc3)nc2n1-c1cccc(C(C)(C)O)n1 + COC1C(OC(N)=O)C(O)C(Oc2ccc3c(O)c(NC(=O)c4ccc(O)c(CC=C(C)C)c4)c(=O)oc3c2C)OC1(C)C
Response: 102

Request: Look up and state reported viability, T/C for CCc1cc2c(N3CCc4c(cc(Cn5ccnc5)cc4-c4cn(C)nc4C(F)(F)F)C3=O)cc(C)nc2c(OC)n1 + Nc1ccc(C#CCN(C(=O)Cc2ncc(C(F)(F)F)cc2C(F)(F)F)c2ccc(F)cc2)nn1
Response: 107

Request: Look up and state reported viability, T/C for CC(C)n1c(=O)n(C)c2cnc3cc(F)c(-c4ccc(OCCCN5CCCCC5)nc4)cc3c21 + COC1C(OC(N)=O)C(O)C(Oc2ccc3c(O)c(NC(=O)c4ccc(O)c(CC=C(C)C)c4)c(=O)oc3c2C)OC1(C)C
Response: 96.8

Request: Look up and state reported viability, T/C for COc1cc2cc(C(=O)CCC(=O)O)sc2cc1OC + Nc1ccc(C#CCN(C(=O)Cc2ncc(C(F)(F)F)cc2C(F)(F)F)c2ccc(F)cc2)nn1
Response: 117
